- assay: Renal concentrations until one week after single oral administration
- Format: in vivo
- condition-info: Sprague-Dawley (SD/IGS), rat; 1 mg/kg po, male Sprague-Dawley rats, kidney, 7 days; read-out: Concentration of compounds in kidney after single oral administration, After 7 days
- Description: SD/IGS rats at 7 weeks of age (male, non-fasting, Charles River Laboratories Japan Inc.) were orally administered with compound 4, 10 or 33 (1 mg/kg each) or compound 11 (0.3 mg/kg) prepared in a 0.5% aqueous CMC solution. […] After the tissue surface was washed with physiological saline, each tissue was measured for its weight and homogenized in 4 volumes of purified water under ice cooling. […]
recorded-endpoint: concentration at 7 days (ng/g)

1. Cc1cc(O)c([C@@H]2O[C@H](CO)[C@@H](O)[C@H](O)[C@H]2O)cc1Cc1ccc(CCCC(=O)NC(C)(C)C(N)=O)cc1 76.3
